All values here come from patent US8338367B2.

The listing below reports pIC50 for molecules tested on MMP13 (Homo sapiens).
One number for each entry, as −log10 of the molar value.

For orientation, consider the following solved cases.
CNC(=O)[C@@H](NC(=O)c1ccc(-c2cc3[nH]ccc3cn2)o1)C1CCCCC1 : 6.99
CNC(=O)[C@@H](NC(=O)c1ccc(-c2ccc3cc[nH]c3c2)o1)C1CCCCC1 : 6.54
CNC(=O)[C@@H](NC(=O)c1ccc(-c2ccc3cc(C(=O)N4CC(C)OC(C)C4)[nH]c3c2)o1)C(C)C (stereo partly drawn) : 7.19
CNC(=O)[C@@H](NC(=O)c1ccc(-c2ccc3cc(C(=O)N4CCOCC4)[nH]c3c2)o1)C(C)C : 6.38
CNC(=O)[C@@H](NC(=O)c1ccc(-c2ccc3cc(C(=O)N4CCN(C)CC4)[nH]c3c2)o1)C(C)C : 6.52

Next item in the queue.
pIC50 for `CNC(=O)[C@@H](NC(=O)c1ccc(-c2ccc3cc(C(=O)N4CCOCC4)[nH]c3c2)o1)C1CCCCC1` ?
6.47
